B1: TPR t1 (parent)
chain: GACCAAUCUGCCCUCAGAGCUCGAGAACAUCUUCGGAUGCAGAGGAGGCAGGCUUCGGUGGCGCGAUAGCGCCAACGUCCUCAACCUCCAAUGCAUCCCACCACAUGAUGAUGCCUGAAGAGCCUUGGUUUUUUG

variants of: B1; assay: polymerase ribozyme fitness, log enrichment relative to wild type (log ratio); higher = more active; in vitro selection for triplet polymerase activity
Task for the reader: assign each of the following variants its reported polymerase ribozyme fitness (log ratio).
Answers are plain numbers.

// known answers, use as guide
variant-notation: U9C C11U G17C A41U
polymerase ribozyme fitness (log ratio): -4.76
--
variant-notation: G69C U106A G120U G128U
polymerase ribozyme fitness (log ratio): -2.78
--
variant-notation: U54G C56G C72A G93A
polymerase ribozyme fitness (log ratio): -4.53
--
variant-notation: G63A U112C
polymerase ribozyme fitness (log ratio): 0.988
--
variant-notation: C12U A43U C56G
polymerase ribozyme fitness (log ratio): -1.63

# return polymerase ribozyme fitness (log ratio) for each item in the list
1. A5G G47U
2. U54G A95C U133A
3. G61A C62U C73A
4. G45U C73A A95U
5. C13A A24G U32C C94U C104U G120A
6. A41U C72G U125G U133G
7. C13A G122A

-1.19
-1.48
-2.37
-1.21
-1.91
-2.77
-2.07

# return polymerase ribozyme fitness (log ratio) for each item in the list
1. G51C G63A U78C A111C
2. C34A G113C G117C

-6.17
-6.74
